Item-by-item account of melting point
Be sure to follow the number with its unit.

Reference set (4 entries):
compound | melting point
CCOC(=O)c1ccc(O)cc1 [ethyl p-hydroxybenzoate] | 116 °C
C=CCC1(C(C)C)C(=O)NC(=O)NC1=O | 143 °C
COc1ccc(I)cc1 | 50 °C
O=C(O)c1cc(Cl)ccc1/N=N/C1SC(=S)NC1=O (stereo not given) | 211 °C

Ask | For the compound c1ccc(C(c2ccccc2)c2ccccc2)cc1 [triphenylmethane] , what melting point is on record?
Reply | 94 °C

Ask | Do the same for N#Cc1ccc(C#N)cc1 [Terephthalonitrile] please
Reply | 226 °C

* * *

measured_metric: melting point (°C)
API: value field is a number in °C; no unit string.

These solved cases illustrate the format of a correct answer.
compound | measured_metric | unit_abbrev | reported_measurement
Cc1c(C)c(C)c(C)c(C)c1C [Hexamethylbenzene] | melting point | °C | 167
O=S(=O)(Cl)c1ccccc1 [Benzenesulfonyl chloride] | melting point | °C | 15
COc1ccc(N)c([N+](=O)[O-])c1 [4-methoxy-2-nitroaniline] | melting point | °C | 127

Ask | Quick one: melting point for Cc1cc(O)ccc1O [2-methylhydroquinone] ?
Reply | 129

Ask | Same for CC(=O)OCC(COC(C)=O)OC(C)=O [Propane-1,2,3-triyl triacetate]
Reply | 3

Ask | One more compound: Nc1cc(C(F)(F)F)ccc1N1CCOCC1 [2-(4-morpholinyl)-5-(trifluoromethyl)aniline]
Reply | 127
